Values compiled from ChEMBL document CHEMBL1949601.

# assay.details: Metabolic stability in human liver microsomes
# Format: ADME, Microsome
# details: read-out: Stability
Collected microsomal CLint values appear next to each entry.

1. CCOc1ccc(Cc2nc3cc(N(C)S(=O)(=O)c4cccs4)ccc3n2CC2CCCCC2)nc1 : > 300 µL/min/mg
2. CCS(=O)(=O)n1c2c(c3cc(C(=O)N4CCC(C)CC4)ccc31)CN(C1CCOCC1)CC2 : 52 µL/min/mg

The reported value for C=CCn1c2c(c3cc(C(=O)N4CCC(C)CC4)ccc31)CN(C1CCSC1)CC2 (stereo not given) in terms of microsomal CLint is > 300 µL/min/mg

The reported value for C=CCn1c2c(c3cc(C(=O)N4CCC(C)CC4)ccc31)CN(CC1CCCC1)CC2 in terms of microsomal CLint is > 300 µL/min/mg

The reported value for C=CCn1c2c(c3cc(C(=O)N4CCC(C)CC4)ccc31)CN(Cc1ccccc1)CC2 in terms of microsomal CLint is > 300 µL/min/mg

====

# target.or.test.system: Cytochrome P450 2C19 (Homo sapiens)
# Sequence (P33261 whole entry): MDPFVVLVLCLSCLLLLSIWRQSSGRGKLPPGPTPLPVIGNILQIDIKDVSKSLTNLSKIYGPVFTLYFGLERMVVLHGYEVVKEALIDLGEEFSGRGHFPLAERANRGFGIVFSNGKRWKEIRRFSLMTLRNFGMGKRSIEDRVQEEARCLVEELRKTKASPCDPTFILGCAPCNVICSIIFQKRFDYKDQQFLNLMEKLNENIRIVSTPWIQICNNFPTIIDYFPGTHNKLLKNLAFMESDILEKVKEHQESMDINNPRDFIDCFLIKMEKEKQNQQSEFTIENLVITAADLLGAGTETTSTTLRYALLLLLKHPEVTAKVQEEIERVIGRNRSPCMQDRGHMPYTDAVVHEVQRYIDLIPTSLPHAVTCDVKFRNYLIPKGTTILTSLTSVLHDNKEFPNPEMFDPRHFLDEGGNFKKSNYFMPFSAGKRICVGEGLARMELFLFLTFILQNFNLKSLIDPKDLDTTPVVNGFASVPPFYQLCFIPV
pIC50: −log10 of the molar value.
readout.name: pIC50

Simply: CCS(=O)(=O)n1c2c(c3cc(C(=O)N4CCC(C)CC4)ccc31)CN(C1CCOCC1)CC2 , Cytochrome P450 2C19 (Homo sapiens), pIC50 = < 4.70

====

# target.or.test.system: Cannabinoid receptor 1 (Homo sapiens)
# assay.details: Agonist activity at human CB1 receptor expressed in HEK293 EBNA cells by [35S]GTPgamma binding assay
# Type: functional, cell-based
readout.name: pEC50
Keep in mind that pEC50 stands for -log10 of concentration in molar terms.

The reported value for C=CCn1c2c(c3cc(C(=O)N4CCC(C)CC4)ccc31)CN(Cc1ccccc1)CC2 in terms of pEC50 is 6.99

The reported value for C=CCn1c2c(c3cc(C(=O)N4CCC(C)CC4)ccc31)CN(CC1CCCC1)CC2 in terms of pEC50 is 6.94

The reported value for C=CCn1c2c(c3cc(C(=O)N4CCC(C)CC4)ccc31)CN(C1CCOCC1)CC2 in terms of pEC50 is 7.22

====

Collected pKa values appear next to each entry.
# assay.details: Dissociation constant, pKa of the compound
# Assay type: physicochemical
Lab note: record the figure alone, no unit after it.

1) CCS(=O)(=O)n1c2c(c3cc(C(=O)N4CCC(C)CC4)ccc31)CN(C1CCOC1)CC2 (centres undefined) : 5.9
2) CCCS(=O)(=O)n1c2c(c3cc(C(=O)N4CCC(C)CC4)ccc31)CN(C1CCOCC1)CC2 : 7.3
3) CCCS(=O)(=O)n1c2c(c3cc(C(=O)N4CCC(C)CC4)ccc31)CN(C1CCOC1)CC2 (centres undefined) : 5.8

Okay, now this compound:
The reported value for CCS(=O)(=O)n1c2c(c3cc(C(=O)N4CCC(C)CC4)ccc31)CN(C1CCOCC1)CC2 in terms of pKa is 6.9

====

# target.or.test.system: Cannabinoid receptor 1 (Homo sapiens, UniProt P21554)
# Sequence (P21554 whole entry): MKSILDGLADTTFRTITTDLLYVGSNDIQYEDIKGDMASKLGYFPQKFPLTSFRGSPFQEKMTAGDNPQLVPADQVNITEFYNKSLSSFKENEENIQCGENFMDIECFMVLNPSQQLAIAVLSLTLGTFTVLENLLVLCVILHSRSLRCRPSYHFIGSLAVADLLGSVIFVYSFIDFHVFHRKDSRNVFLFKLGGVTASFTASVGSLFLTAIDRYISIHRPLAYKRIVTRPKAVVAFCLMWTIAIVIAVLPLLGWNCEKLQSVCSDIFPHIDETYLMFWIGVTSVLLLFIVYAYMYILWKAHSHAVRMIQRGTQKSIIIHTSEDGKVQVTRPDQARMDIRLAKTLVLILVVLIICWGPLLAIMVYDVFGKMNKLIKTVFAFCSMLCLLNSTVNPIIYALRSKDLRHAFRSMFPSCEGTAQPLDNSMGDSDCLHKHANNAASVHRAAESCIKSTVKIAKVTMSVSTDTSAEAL
Assign classes using reported Ki values and the ranges band A: < 30 nM; band B: ≥ 30 nM and < 200 nM; band C: ≥ 200 nM, please.

Example entries begin here.
1. CC1CCN(C(=O)c2ccc3c(c2)c2c(n3S(=O)(=O)N(C)C)CCN(C3CCCC3)C2)CC1 : band A
2. CCCS(=O)(=O)n1c2c(c3cc(C(=O)N4CCC(C)CC4)ccc31)CN(C1CCOCC1)CC2 : band B
3. CCS(=O)(=O)n1c2c(c3cc(C(=O)N4CCC(C)CC4)ccc31)CN(C1CCCC1)CC2 : band A
4. Cn1c2c(c3cc(C(=O)N4CCCCC4)ccc31)CN(C1CCOCC1)CC2 : band C
5. CCCS(=O)(=O)n1c2c(c3cc(C(=O)N4CCC(C)CC4)ccc31)CN(C1CCCC1)CC2 : band A

In: Which category fits this record: CC1CCN(C(=O)c2ccc3c(c2)c2c(n3C(=O)N(C)C)CCN(C3CCOCC3)C2)CC1
Out: band C

In: Which category fits this record: CC1CCN(C(=O)c2ccc3c(c2)c2c(n3C)CCN(C3CCCC3)C2)CC1
Out: band B

In: Which category fits this record: CC1CCN(C(=O)c2ccc3c(c2)c2c(n3S(=O)(=O)C(C)C)CCN(C3CCOCC3)C2)CC1
Out: band B

In: Which category fits this record: CCNS(=O)(=O)n1c2c(c3cc(C(=O)N4CCC(C)CC4)ccc31)CN(C1CCOCC1)CC2
Out: band C

In: Which category fits this record: CC1CCN(C(=O)c2ccc3c(c2)c2c(n3S(C)(=O)=O)CCN(C3CCOCC3)C2)CC1
Out: band C

In: Which category fits this record: CCCn1c2c(c3cc(C(=O)N4CCC(C)CC4)ccc31)CN(C1CCOCC1)CC2
Out: band B

In: Which category fits this record: CC1CCN(C(=O)c2ccc3c(c2)c2c(n3S(=O)(=O)N(C)C)CCN(C3CCOCC3)C2)CC1
Out: band B

In: Which category fits this record: C=CCn1c2c(c3cc(C(=O)N4CCC(C)CC4)ccc31)CN(C1CCCC1)CC2
Out: band A

In: Which category fits this record: CCOc1ccc(Cn2c3c(c4cc(C(=O)N5CCC(C)CC5)ccc42)CN(C2CCOCC2)CC3)cc1
Out: band B

In: Which category fits this record: CC1CCN(C(=O)c2ccc3c(c2)c2c(n3S(=O)(=O)c3ccccc3)CCN(C3CCOCC3)C2)CC1
Out: band B

In: Which category fits this record: C=CCn1c2c(c3cc(C(=O)N4CCC(C)CC4)ccc31)CN(C1CCCCC1)CC2
Out: band B

In: Which category fits this record: C=CCn1c2c(c3cc(C(=O)N4CCC(C)CC4)ccc31)CN(CC1CC1)CC2
Out: band B

In: Which category fits this record: CCCS(=O)(=O)n1c2c(c3cc(C(=O)N4CCC(C)CC4)ccc31)CN(C1CCOC1)CC2 (stereo unspecified)
Out: band C

In: Which category fits this record: CC1CCN(C(=O)c2ccc3c(c2)c2c(n3C)CCN(C3CCOCC3)C2)CC1
Out: band B

In: Which category fits this record: CCOc1ccc(Cc2nc3cc(N(C)S(=O)(=O)c4cccs4)ccc3n2CC2CCCCC2)nc1
Out: band A
